B1: library; a variant is named by its letters at N, in order (parent)
chain: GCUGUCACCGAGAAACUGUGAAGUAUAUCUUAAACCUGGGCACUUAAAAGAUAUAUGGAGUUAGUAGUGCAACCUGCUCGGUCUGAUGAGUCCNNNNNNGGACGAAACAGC

Variants of: B1
Assay: normalized RNA/DNA level without ligand (relative to sTRSVctl = 100) (log10 (% of sTRSVctl)); HEK293T; ligand: cyclic di-GMP (c-di-GMP-II aptamer); higher = less ribozyme self-cleavage, higher mRNA level
Settings: reporter: mCherry (pCS4076), ligand present: no
OBSERVATION_TYPE: normalized RNA/DNA level without ligand (log10)

> print(dat)
    variant  readout.number
 1   GCCUAC            1.55
 2   ACAGUA            1.31
 3   AUGAUU            1.41
 4   UGUUGC            1.75
 5   UGCCGG            1.75
 6   UGGGAA            1.57
 7   CGGUUU            1.66
 8   GCUGUG            1.64
 9   CGCGCC            1.75
10   GCUACG            1.58
11   GAGUGU            1.77
12   UUUUAU             1.7
13   UAAACU            1.71
14   AUGCUU            1.61
15   UGAAAU            1.66
